Numbers sourced from ChEMBL document CHEMBL1146892.

Consider the following compounds and their measured MIC readings.
# Tested on: Enterococcus faecalis
# Measurement protocol: Antibacterial activity against vancomycin-resistant Enterococcus faecalis ATCC 51299
# Type: functional

- Compound: "CC(C)Cc1ccc(C(C)CN2C(=N)N([C@@H](CC3CCCCC3)CN3CCCC3CN3C(N)=NC[C@@H]3C)C[C@H]2CC2CCCCC2)cc1 (stereo not given in full)"
  Property: "MIC"
  Reported result: "< 2.5 µg/mL"

Value lookup for MIC; key = CC(C)Cc1ccc(C(C)CN2C(=N)N([C@H](Cc3ccc4ccccc4c3)CN3CCCC3CN3C(N)=NC[C@@H]3C)C[C@@H]2CC2CCCCC2)cc1 (stereo not given in full)
> 10 µg/mL

Value lookup for MIC; key = N=C1N(CCc2cc(C(F)(F)F)cc(C(F)(F)F)c2)[C@@H](CC2CCCCC2)CN1[C@H](CC1CCCCC1)CN1CCCC1CN1C(N)=NC[C@@H]1Cc1ccccc1 (stereo not given in full)
2.5 µg/mL
